# test: ATG_SREBP_CIS: Attagene CIS-FACTORIAL HepG2 Assay for human Sterol Regulatory Element Binding (SREBP) (AID 2282962)
# assay-context: HepG2 Attagene cis-factorial SREBP reporter, mRNA; actives raise or lower the signal
Active and inactive are the calls of the source. How the source made its calls: active means hit-call score of the fitted dose curve at least 0.9, where 1 is the maximum; inactive means score below 0.9.
Use one of these outcomes when replying: 1 = active, 0 = inactive

>>> classification("CCCCCC1C(=O)CCC1CC(=O)OC (stereo unspecified)")
0
>>> classification("CCC(C)(CCCC(C)C)OC(C)=O (stereo unspecified)")
0

Please find the next compound below.
Hello, I am checking results. What call was entered for CC(CO)(CO)[N+](=O)[O-] ?
0
